The measurements presented in this section are drawn from patent US20020016346A1.

- MEASURED ON: Na—K—Cl cotransport (Bos taurus, UniProt F1MS08)
- Sequence (F1MS08 1-1204): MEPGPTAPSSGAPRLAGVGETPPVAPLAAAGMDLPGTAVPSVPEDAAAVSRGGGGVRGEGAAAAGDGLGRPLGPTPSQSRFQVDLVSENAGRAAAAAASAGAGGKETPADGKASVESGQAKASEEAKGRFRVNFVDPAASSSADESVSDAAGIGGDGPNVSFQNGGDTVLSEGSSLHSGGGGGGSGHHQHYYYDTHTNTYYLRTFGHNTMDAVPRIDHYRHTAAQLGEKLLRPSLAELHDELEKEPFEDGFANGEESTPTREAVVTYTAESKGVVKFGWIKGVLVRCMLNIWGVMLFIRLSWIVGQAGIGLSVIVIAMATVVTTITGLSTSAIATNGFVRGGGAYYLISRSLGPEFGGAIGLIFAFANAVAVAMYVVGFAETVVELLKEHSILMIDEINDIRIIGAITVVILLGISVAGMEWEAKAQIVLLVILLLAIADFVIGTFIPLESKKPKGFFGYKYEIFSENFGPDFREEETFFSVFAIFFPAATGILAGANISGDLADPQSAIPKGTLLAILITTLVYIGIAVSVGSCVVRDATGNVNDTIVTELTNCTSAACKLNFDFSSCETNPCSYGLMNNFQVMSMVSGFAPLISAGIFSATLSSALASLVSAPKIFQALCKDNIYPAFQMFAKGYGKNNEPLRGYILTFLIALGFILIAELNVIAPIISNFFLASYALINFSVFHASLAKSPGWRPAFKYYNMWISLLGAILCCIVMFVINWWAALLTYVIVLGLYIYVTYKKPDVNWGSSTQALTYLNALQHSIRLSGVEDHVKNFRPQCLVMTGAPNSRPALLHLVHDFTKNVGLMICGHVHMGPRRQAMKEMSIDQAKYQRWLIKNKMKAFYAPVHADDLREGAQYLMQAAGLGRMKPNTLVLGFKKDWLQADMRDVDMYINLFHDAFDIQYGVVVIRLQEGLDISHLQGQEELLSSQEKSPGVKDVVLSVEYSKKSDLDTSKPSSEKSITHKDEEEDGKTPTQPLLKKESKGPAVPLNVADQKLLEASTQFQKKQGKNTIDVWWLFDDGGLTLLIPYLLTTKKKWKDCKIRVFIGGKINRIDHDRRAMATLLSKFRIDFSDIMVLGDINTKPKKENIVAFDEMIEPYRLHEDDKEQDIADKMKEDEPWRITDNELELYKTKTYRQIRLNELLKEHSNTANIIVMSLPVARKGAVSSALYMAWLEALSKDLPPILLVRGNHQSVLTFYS
- ASSAY DETAILS: K influx (86Rb) in bovine TM cell monolayers
- Format: cell-based
- ASSAY CONDITIONS: bovine TM cells; VP 100 nM, NE 10 μM, Ach 1 μM, cAMP 50 μM, cGMP 50 μM, A23187 1 μM, PMA 10 nM, Ca-free medium plus 5 μM BAPTA-AM; control 25.6 ± 0.71
PARAMETER: BUMETANIDE-SENSITIVE K INFLUX (μmol/g protein/min)
State the answer as a number, implicitly in μmol/g protein/min.

Worked examples, 5 compounds total:
{"COMPOUND": "CNc1ccc2oc(C[C@H]3O[C@@]4(CC[C@H]3C)O[C@H]([C@H](C)C(=O)c3ccc[nH]3)[C@H](C)C[C@H]4C)nc2c1C(=O)O", "MEASURED RESULT": 33.4}
{"COMPOUND": "CC(=O)OCOC(=O)CN(CC(=O)OCOC(C)=O)c1ccccc1OCCOc1ccccc1N(CC(=O)OCOC(C)=O)CC(=O)OCOC(C)=O [Ca-free]", "MEASURED RESULT": 4.9}
{"COMPOUND": "NC[C@H](O)c1ccc(O)c(O)c1 [NE, norepinephrine]", "MEASURED RESULT": 18.6}
{"COMPOUND": "CCCCCCCCCCCCCC(=O)O[C@@H]1[C@@H](C)[C@@]2(O)[C@@H](C=C(CO)C[C@]3(O)C(=O)C(C)=C[C@@H]23)[C@@H]2C(C)(C)[C@]12OC(C)=O [PMA, phorbol 12-myristate 13-acetate]", "MEASURED RESULT": 34.0}
{"COMPOUND": "NC(=O)CC[C@@H]1NC(=O)[C@H](Cc2ccccc2)NC(=O)[C@H](Cc2ccc(O)cc2)NC(=O)[C@@H](N)CSSC[C@@H](C(=O)N2CCC[C@H]2C(=O)N[C@@H](CCCN=C(N)N)C(=O)NCC(N)=O)NC(=O)[C@H](CC(N)=O)NC1=O", "MEASURED RESULT": 40.4}

# context switch: different compound, same BUMETANIDE-SENSITIVE K INFLUX
Input `Nc1nc2c(nc(Br)n2[C@@H]2O[C@@H]3COP(=O)(O)O[C@H]3[C@H]2O)c(=O)[nH]1` . Output BUMETANIDE-SENSITIVE K INFLUX: 19.7

----------
- ASSAY DETAILS: Lipophilicity (log P′), n-octanol/phosphate buffer pH 7.4 shake-flask or RP-HPLC
- Format: physicochemical
PARAMETER: logP
// return a plain number; no unit text

{"COMPOUND": "O=C(NC1CCCCC1)NS(=O)(=O)c1cnccc1NC1CCCCCCCCCCC1 [Compound 18]", "logP": 3.45}
{"COMPOUND": "O=C(NC1CCCCCCC1)NS(=O)(=O)c1cnccc1NC1CCCCCC1 [Compound 16]", "logP": 2.44}
{"COMPOUND": "O=C(NS(=O)(=O)c1cnccc1NC1CCCCCC1)N1CCCCC1 [Compound 22]", "logP": 1.24}

response.value for O=C(NC1CCCCCC1)NS(=O)(=O)c1cnccc1NC1CCCCCC1 [Compound 13] (field: logP) = 2.06

Quick note, logP for Cc1cccc(Nc2ccncc2S(=O)(=O)NC(=O)NC(C)C)c1 [Compound 7] landed at 0.45

Briefly, logP measured for O=C(NC1CCCCCC1)NS(=O)(=O)c1cnccc1NC1CCCCCCC1 [Compound 14] : 2.45

Value of measured logP for the entry O=C(NS(=O)(=O)c1cnccc1NC1CCCCCCC1)N1CCCCC1 [Compound 23] : 1.65

logP recorded for this compound, O=C(NC1CCCCCCC1)NS(=O)(=O)c1cnccc1NC1CCCCCCC1 [Compound 17] , is 2.7

Entry O=S(=O)(NC(=S)NC1CCCCC1)c1cnccc1NC1CCCCCC1 [Compound 20] — recorded logP = 1.79

----------
- MEASURED ON: Na+2Cl−K+ co-transporter (Oryctolagus cuniculus, UniProt P55015)
- Construct: cotransporter system found in the cortical thick ascending limbs of the loop of Henle of mammals; from tissue; host or cells: dissected, perfused cortical thick ascending limb tubules of rabbit kidney
- Sequence (P55015 whole entry, the tested form may be a part): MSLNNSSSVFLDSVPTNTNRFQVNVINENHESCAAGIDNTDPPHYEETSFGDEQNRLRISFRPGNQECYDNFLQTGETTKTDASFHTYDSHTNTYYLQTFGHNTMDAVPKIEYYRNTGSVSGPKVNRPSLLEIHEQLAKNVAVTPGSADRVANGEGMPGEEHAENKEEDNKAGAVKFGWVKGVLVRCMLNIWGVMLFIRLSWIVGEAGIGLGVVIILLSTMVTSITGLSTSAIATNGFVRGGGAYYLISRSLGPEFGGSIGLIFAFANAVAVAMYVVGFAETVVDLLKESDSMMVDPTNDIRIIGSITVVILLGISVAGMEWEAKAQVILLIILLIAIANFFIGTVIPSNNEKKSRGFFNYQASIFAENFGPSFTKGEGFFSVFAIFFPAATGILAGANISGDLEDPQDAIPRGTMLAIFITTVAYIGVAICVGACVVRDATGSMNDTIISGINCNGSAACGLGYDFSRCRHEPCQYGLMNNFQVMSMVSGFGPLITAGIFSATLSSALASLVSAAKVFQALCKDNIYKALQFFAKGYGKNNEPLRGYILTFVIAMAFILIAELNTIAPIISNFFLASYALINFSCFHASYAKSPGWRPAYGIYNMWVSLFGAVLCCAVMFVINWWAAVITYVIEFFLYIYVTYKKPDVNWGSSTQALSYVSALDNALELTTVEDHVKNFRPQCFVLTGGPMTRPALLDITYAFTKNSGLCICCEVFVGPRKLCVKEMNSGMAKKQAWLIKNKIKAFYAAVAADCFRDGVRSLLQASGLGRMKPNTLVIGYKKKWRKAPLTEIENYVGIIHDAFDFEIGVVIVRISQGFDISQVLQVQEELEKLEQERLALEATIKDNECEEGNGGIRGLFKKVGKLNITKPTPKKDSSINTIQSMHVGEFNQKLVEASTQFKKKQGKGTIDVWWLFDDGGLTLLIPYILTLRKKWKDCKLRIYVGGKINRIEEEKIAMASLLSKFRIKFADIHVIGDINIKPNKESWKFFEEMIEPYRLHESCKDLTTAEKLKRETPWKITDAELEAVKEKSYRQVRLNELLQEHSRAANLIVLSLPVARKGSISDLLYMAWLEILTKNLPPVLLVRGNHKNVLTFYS
- ASSAY DETAILS: Inhibition of short circuit current in perfused cortical thick ascending limb of the loop of Henle
- Type: cell-based, rabbit
- ASSAY CONDITIONS: concentration blocking 50% of short circuit current; read-out: IC50
PARAMETER: IC50 (µM)
A number alone suffices; assume µM.

# example entries with known answers
{"SMILES REPRESENTATION": "O=C(NC1CCCCC1)NS(=O)(=O)c1cnccc1NC1CCCCCCC1", "IC50, µM": 0.47}
{"SMILES REPRESENTATION": "O=C(NC1CCCCCC1)NS(=O)(=O)c1cnccc1NC1CCCCCC1", "IC50, µM": 2.8}
{"SMILES REPRESENTATION": "O=C(NC1CCCCCC1)NS(=O)(=O)c1cnccc1NC1CCCCC1", "IC50, µM": 9.5}
{"SMILES REPRESENTATION": "O=C(NS(=O)(=O)c1cnccc1NC1CCCCCCC1)N1CCCCC1", "IC50, µM": 0.15}
{"SMILES REPRESENTATION": "O=C(NC1CCCCCCC1)NS(=O)(=O)c1cnccc1NC1CCCCCC1", "IC50, µM": 1.7}

For record `O=C(NC1CCCCCC1)NS(=O)(=O)c1cnccc1NC1CCCCCCC1` the listed IC50 is 2

Looking up `O=C(NS(=O)(=O)c1cnccc1NC1CCCCCC1)N1CCCCC1` , I see its IC50 listed as 0.25

What the record says about `O=C(NS(=O)(=O)c1cnccc1NC1CCCCC1)N1CCCCC1` : IC50 is 0.32

----------
- MEASURED ON: Na+2Cl−K+ co-transporter (Oryctolagus cuniculus, UniProt P55015)
- Construct: cotransporter system found in the cortical thick ascending limbs of the loop of Henle of mammals; from tissue; host or cells: dissected, perfused cortical thick ascending limb tubules of rabbit kidney
- ASSAY DETAILS: Inhibition of short circuit current in perfused cortical thick ascending limb of the loop of Henle
- Assay type: cell-based, rabbit
- ASSAY CONDITIONS: concentration blocking 50% of short circuit current; read-out: IC50
# maps each entry to its log10 IC50
Lab note - IC50 converted to log10 from values in nM.

// known answers, use as guide
{"MOLECULE": "O=C(NC1CCCCC1)NS(=O)(=O)c1cnccc1NC1CCCCC1 [Compound 9]", "log10 IC50": 4.28}
{"MOLECULE": "CC(C)NC(=S)NS(=O)(=O)c1cnccc1NC1CCCCCC1 [Compound 19]", "log10 IC50": 3.11}
{"MOLECULE": "O=C(NC1CCCCC1)NS(=O)(=O)c1cnccc1NC1CCCCCC1 [Compound 10]", "log10 IC50": 3.54}
{"MOLECULE": "O=C(NC1CCCCCCC1)NS(=O)(=O)c1cnccc1NC1CCCCCCC1 [Compound 17]", "log10 IC50": 2.75}

// log10 IC50 value for Cc1cccc(Nc2ccncc2S(=O)(=O)NC(=O)NC(C)C)c1 [Compound 7] : 2.30
